TARGET_SYSTEM: T1, monomeric human PRLR (hPRLR.mmh; SEQ ID NO:401) (Homo sapiens, UniProt P16471)
T1 construct: soluble monomeric (hPRLR.mmh); mmh (myc-myc-hexahistidine) (C)
T1 sequence (P16471 with tags, fused parts or gaps): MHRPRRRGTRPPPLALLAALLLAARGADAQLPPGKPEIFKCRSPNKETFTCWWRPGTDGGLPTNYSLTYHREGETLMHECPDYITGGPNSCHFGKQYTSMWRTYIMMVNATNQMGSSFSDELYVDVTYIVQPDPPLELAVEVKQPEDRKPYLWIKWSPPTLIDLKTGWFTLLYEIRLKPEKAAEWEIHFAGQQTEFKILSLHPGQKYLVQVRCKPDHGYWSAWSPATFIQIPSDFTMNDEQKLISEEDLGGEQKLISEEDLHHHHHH
ASSAY_COMMENT: Surface plasmon resonance (Biacore T200), antibody-capture format
Assay type: binding
EXPERIMENTAL_SETUP: 37° C., analyte hPRLR.mmh
MEASURED_METRIC: kd (s⁻¹)
Answer format: numeric, s⁻¹ implied, no suffix.

Solved cases (2 shown):
[
  {
    "MOLECULE": "H1H6803P: fully human anti-PRLR antibody, human IgG1 Fc; HCVR/LCVR SEQ ID NOs 226/234 (antibody, V domains shown) VH: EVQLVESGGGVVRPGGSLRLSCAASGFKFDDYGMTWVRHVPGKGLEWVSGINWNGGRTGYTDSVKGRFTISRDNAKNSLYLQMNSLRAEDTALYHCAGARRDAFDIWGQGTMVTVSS VL: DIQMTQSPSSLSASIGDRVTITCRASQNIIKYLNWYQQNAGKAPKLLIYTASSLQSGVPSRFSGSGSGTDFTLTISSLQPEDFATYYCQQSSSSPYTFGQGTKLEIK",
    "kd / s⁻¹": 0.000364
  },
  {
    "MOLECULE": "H1H6765P: fully human anti-PRLR antibody, human IgG1 Fc; HCVR/LCVR SEQ ID NOs 18/26 (antibody, V domains shown) VH: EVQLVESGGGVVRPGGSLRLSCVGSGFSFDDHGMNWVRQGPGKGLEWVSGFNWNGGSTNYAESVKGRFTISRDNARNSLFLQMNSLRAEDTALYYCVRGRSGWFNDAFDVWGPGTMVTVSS VL: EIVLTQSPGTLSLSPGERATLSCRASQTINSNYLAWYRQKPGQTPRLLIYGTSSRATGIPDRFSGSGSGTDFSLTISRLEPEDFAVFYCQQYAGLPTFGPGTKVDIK",
    "kd / s⁻¹": 0.000366
  }
]

Below: the item to evaluate.
Qu. Could you please provide reported kd for H1H6800P: fully human anti-PRLR antibody, human IgG1 Fc; HCVR/LCVR SEQ ID NOs 194/202 (antibody, V domains shown) VH: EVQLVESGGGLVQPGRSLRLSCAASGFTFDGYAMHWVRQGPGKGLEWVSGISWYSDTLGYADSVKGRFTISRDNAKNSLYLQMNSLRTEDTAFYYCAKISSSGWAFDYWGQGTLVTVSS VL: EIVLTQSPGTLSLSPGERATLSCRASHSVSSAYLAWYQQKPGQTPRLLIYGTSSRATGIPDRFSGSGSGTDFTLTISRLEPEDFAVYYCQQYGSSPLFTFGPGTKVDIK ? Thanks!
Ans. 0.00119
